Assay: chemical genetic growth profiling, strain panel (AID 1159580);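 further: tested at 20 µM; growth read once vehicle control cultures reached saturation at 30 °C; 1 = growth at the plate median or of vehicle wells; lower values mean less growth of the strain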
Conditions: S. cerevisiae deletion strains, growth OD, locus YNL153C, strain GIM3, active compounds read low
Out of some 5,500 compounds screened, about 2,000 (36%) were called active. Another 18% or so got no clear call; they are omitted. This is one part of the list.
Assay readout: normalized growth
Simply state the number, no unit and no words.

Compound | Readout value
O=C(CSc1ccc(Cl)cc1)Nc1ccc(F)cc1 | 0.925

Q. For the compound shown here, S=c1nc2[nH]c3ccccc3c2n[nH]1 , give the reported normalized growth.
A. 0.977

Q. For the compound shown here, CNCCC(Oc1ccc(C(F)(F)F)cc1)c1ccccc1 (configuration not stated) , give the reported normalized growth.
A. 1.01

Q. For the compound shown here, C[C@]12CCC(=O)C=C1C=CC1C2CC[C@@]2(C)C1CC[C@@]2(O)CCC(=O)O (some centres not stated) , give the reported normalized growth.
A. 0.977

Taken from PubChem BioAssay AID1159580.
